Exercise: state measured IC50 for each of the compounds provided.
target: UniProt P19099; assay: Inhibition of human CYP11B2 expressed in hamster V79MZh cells using [1,2-3H]-11-deoxycorticosterone as substrate; type: cell-based
Sequence (P19099 whole entry): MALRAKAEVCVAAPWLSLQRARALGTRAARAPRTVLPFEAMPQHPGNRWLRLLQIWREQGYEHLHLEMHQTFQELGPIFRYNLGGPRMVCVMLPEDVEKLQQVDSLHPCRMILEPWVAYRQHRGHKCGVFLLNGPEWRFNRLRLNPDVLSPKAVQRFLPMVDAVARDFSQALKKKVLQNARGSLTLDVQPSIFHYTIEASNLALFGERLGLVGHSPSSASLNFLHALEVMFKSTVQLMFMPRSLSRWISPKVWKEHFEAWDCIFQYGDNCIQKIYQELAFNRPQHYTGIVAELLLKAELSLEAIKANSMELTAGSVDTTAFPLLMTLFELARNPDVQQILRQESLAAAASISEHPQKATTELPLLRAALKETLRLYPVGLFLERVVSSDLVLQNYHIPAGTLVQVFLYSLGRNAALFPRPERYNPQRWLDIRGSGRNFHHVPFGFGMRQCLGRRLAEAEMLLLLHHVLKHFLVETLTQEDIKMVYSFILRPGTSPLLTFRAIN
Give just the numeric value; µM need not be written.

// IC50 lookup, compound = COc1ccc2ccc(-c3cncc(F)c3)c(Cl)c2c1 , result: 0.038

# IC50 (compound: Oc1cncc(-c2ccc3ccc(O)cc3c2Cl)c1 ) is 0.027

Lab note: COc1ccc2ccc(-c3cncc4ccccc34)c(Cl)c2c1 gave IC50 of 0.054

Recorded IC50 (compound COc1ccc2ccc(-c3cncnc3)c(Cl)c2c1 ): 0.072

Note to self: IC50 recorded for COc1cncc(-c2ccc3ccc(O)cc3c2Cl)c1 was 0.015

Looking up COc1ccc2ccc(-c3cccnc3)c(F)c2c1 , I see its IC50 listed as 0.017

Sample Oc1ccc2ccc(-c3cncc4ccccc34)c(Cl)c2c1 ; IC50 observed: 0.066

Looking up Oc1ccc2ccc(-c3cncc(F)c3)c(Cl)c2c1 , I found its IC50 recorded as 0.033

// sample COc1ccc2ccc(-c3cccnc3)c(Cl)c2c1F , its IC50 was 0.028

The compound listed as Oc1ccc2ccc(-c3cncnc3)c(Cl)c2c1 has a reported IC50 of 0.022

Recorded IC50 (compound Oc1ccc2ccc(-c3cccnc3)c(Cl)c2c1 ): 0.026

// IC50 lookup, compound = Oc1ccc2ccc(-c3cccnc3)c(F)c2c1 , result: 0.03

Measured IC50 of COc1cncc(-c2ccc3ccc(OC)cc3c2Cl)c1 : 0.024

Value of IC50 reported for the compound COc1ccc2ccc(-c3cncc(O)c3)c(Cl)c2c1 is 0.013

Just so you know, measured IC50 for Oc1ccc2ccc(-c3cccnc3)c(Cl)c2c1F came out at 0.025
